The entries below come with measured inhibition at 0.01 µM values attached.
- MEASUREMENT TARGET: mu receptor (Rattus norvegicus, UniProt P33535)
- Construct: The brain tissue, rat whole brain minus cerebellum for mu was homogenized; from tissue; host or cells: brain minus cerebellum of male Sprague Dawley rats, homogenate fraction
- Sequence (P33535 whole entry): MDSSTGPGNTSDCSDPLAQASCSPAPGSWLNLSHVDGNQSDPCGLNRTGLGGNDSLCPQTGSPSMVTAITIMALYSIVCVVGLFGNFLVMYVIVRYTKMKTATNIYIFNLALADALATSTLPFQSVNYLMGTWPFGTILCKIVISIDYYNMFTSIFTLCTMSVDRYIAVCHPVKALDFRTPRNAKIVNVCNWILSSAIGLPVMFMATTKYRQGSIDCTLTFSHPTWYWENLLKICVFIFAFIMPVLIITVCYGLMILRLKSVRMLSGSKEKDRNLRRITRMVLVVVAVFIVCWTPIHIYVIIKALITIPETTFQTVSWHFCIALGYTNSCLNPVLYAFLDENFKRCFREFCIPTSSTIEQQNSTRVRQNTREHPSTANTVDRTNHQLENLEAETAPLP
- ASSAY EXPLANATION: Naloxone [3H] opioid receptor binding assay (mu receptor)
- Design: species or system rat (male Sprague Dawley)
- CONDITION PARAMETERS: 20 min, pH 7.4; 10 nM test compound; [3H]naloxone 0.5 nM; mu receptor; read-out: % displacement at 10 nM
Structures can show the parent of a compound that is named as a salt.
Response body: numeric value in %, unit text excluded.

Record excerpt, results attached:
                                   compound                        measurement_target      measurement_label  val
0  CCOC(=O)CCCC(=O)N(CCN1CC[C@@](C)(c2cccc(O)c2)[C@@H](C)C1)C1CCCCC1 (relative stereo) [Example 32, monohydrochloride]  mu receptor (Rattus norvegicus, UniProt P33535)  inhibition at 0.01 µM   40
1  CC(C)COC(=O)CCCC(=O)N[C@@H](CC1CCCCC1)CN1CC[C@](C)(c2cccc(O)c2)[C@H](C)C1 [Example 55]  mu receptor (Rattus norvegicus, UniProt P33535)  inhibition at 0.01 µM   40
2  CC(C)COC(=O)CCCC(=O)N[C@@H](CC1CCCCC1)CN1CC[C@@](C)(c2cccc(O)c2)[C@@H](C)C1 [Example 56]  mu receptor (Rattus norvegicus, UniProt P33535)  inhibition at 0.01 µM   61

Moving on to the next compound.
Problem: Please give measured inhibition at 0.01 µM of the following entry: CC(C)CC(=O)NC(CCCNC(=N)N[N+](=O)[O-])C(=O)NCCN1CCC(C)(c2cccc(O)c2)C(C)C1 (stereo not shown) [Example 43]
Solution: 59
